Catalogue of z-score readings, one per entry.
experiment: inhibition of PAO1 biofilm formation – strain PAO1, LB-PBS medium, absorbance 600 nm, primary screen (AID 1176); also: test concentration not given here; conditions: P. aeruginosa PAO1 growth/biofilm, A600, 12 h; higher = more signal

| Smiles text | z-score |
| --- | --- |
| COC(=O)[C@@]1(Cc2ccc(OC)cc2)[C@H]2c3cc(C(=O)N4CCCC4)n(Cc4ccc(C(F)(F)F)nc4)c3C[C@H]2CN1C(=O)c1ccccc1 | 1.08 |
| C=C(COC)/C(=C/C[C@@H](OC(C)=O)c1ccccc1OCCO)c1cnc2ccccc2c1 | -0.104 |
| C=C(COC)C(=O)CC[C@@H](OC(=O)c1ccccc1-c1ccccc1C(=O)O)c1ccc(OCCO)cc1 | 0.449 |
| CN(C)CCCC[C@@H]1NC(=O)[C@@H]2C[C@H](C(=O)NCCCCCCNC(=O)CS)[C@H](c3ccc(O)cc3)N2C1=O | 0.767 |

###

experiment: optical density shifts of acrAB sulA E. coli – strain DRC41, OD650, 48 h, E. coli filamentation inducer project, primary screen (AID 1152); details: higher = more signal, called active from +8 up or from −8 down;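 also: E. coli MC1000 strain DRC41 lacking acrAB efflux pump and sulA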

| Molecule | z-score |
| --- | --- |
| CC(C)OC(=O)CC(=O)CC(O)c1cccc([N+](=O)[O-])c1 (stereo unspecified) | 1.27 |
| CO[C@H]1O[C@H](CO)[C@@H](OC(=O)Nc2ccccc2-c2ccccc2)[C@H](OC(=O)Nc2ccccc2)[C@H]1OC(=O)Nc1ccccc1 | 0.299 |
| C=CC1c2cc(O)c(OC)cc2CCN1C (stereo unspecified) | -0.664 |
| COc1ccc(CCNC(=O)[C@@H]2c3ccccc3C(=O)N(Cc3ccccc3OC)[C@H]2c2ccc(CO)cc2)cc1 | -0.499 |
| CN(C)CCCCNC(=O)[C@H]1C[C@H]2C(=O)N3CCC[C@H]3C(=O)N2[C@H]1c1cccc(OCCO)c1 | -0.019 |
| O=C1C[C@@](C(=O)O)(c2ccc([N+](=O)[O-])cc2)[C@@H](c2ccc(CO)cc2)N1C1CCCCC1 | -0.485 |
| CN1C(=O)C2C=CC(C(O)c3ccc(-c4ccccc4)s3)N(NC(=O)OC(C)(C)C)C2C1=O (stereo unspecified) | -0.898 |
| O=C1C2C=CC(C(O)c3ccc([N+](=O)[O-])cc3)N(Nc3ccccc3F)C2C(=O)N1c1ccccc1 (stereo unspecified) | -1.36 |
| CN1C(=O)C2C(C1=O)C1C=C(CCCO)C2C(C2CC2)N1Cc1cccc(OC(F)(F)F)c1 (stereo unspecified) | -0.771 |
| Cc1ccc(S[C@]2(C(=O)NCC(F)(F)F)CC(=O)N(Cc3ccccc3C(F)(F)F)[C@@H]2c2ccc(CO)cc2)cc1 | -0.262 |
| Cc1ccc(S[C@]2(C(=O)NCCCN(C)C)CC(=O)N(C3Cc4ccccc4C3)[C@@H]2c2ccc(CO)cc2I)cc1 | -0.759 |
| O=C1c2ccccc2[C@@]2(Cc3ccccc3N(Cc3ccccc3)C2=O)[C@H](c2ccc(CO)cc2)N1Cc1ccccc1Cl | -0.29 |
| CC(C)C(CO)N1C(=O)[C@@H]2C3C(=O)OCCC/C=C\[C@H]3OC23C=CCN(Cc2ccccc2)C(=O)[C@@H]13 (stereo partly specified) | 0.83 |
| COCCn1c(C(=O)N(C)C)cc2c1C[C@H]1CN(C(=O)c3ccccc3)[C@@](Cc3ccc(OC)cc3)(C(=O)OC)[C@@H]21 | -1.18 |
| CC(=O)c1ccc(C(O)C2C=CC3C(=O)N(c4ccccc4)C(=O)C3N2Nc2ccc(C(C)C)cc2)cc1 (stereo unspecified) | -1.08 |
| COC(=O)[C@@]1(Cc2ccc(F)cc2)[C@H]2c3cc(C(=O)N4CCCC4)n(Cc4ccccn4)c3C[C@H]2CN1C(=O)c1ccccc1 | -1.9 |

###

experiment: JC-1 mitochondrial potential readout, lung cancer cells – cell-based, A549, JC-1 fluorescence, basal, 24 h, 100 nL, profiling panel (AID 1138); settings: higher = more signal;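 also: A549 lung adenocarcinoma cells under basal conditions with no added stimulus; test concentration not given here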

| Molecule | z-score |
| --- | --- |
| C=C(CCCC)/C(=C/C[C@H](OC(C)=O)c1cccc(OCCO)c1)c1cnc2ccccc2c1 | 2.35 |
| COC(=O)[C@@]1(Cc2ccc(F)cc2)[C@H]2c3cc(C(=O)N4CCCC4)n(Cc4cc(F)cc5c4OCOC5)c3C[C@H]2CN1C(=O)c1ccccc1 | 1.8 |
| CC(C)C(O)C1C=CC2C(=O)NC(=O)C2N1Nc1ccccn1 (stereo not given) | 0.44 |
| O=C(NC1CC1)[C@@H]1c2ccccc2C(=O)N(CC23CC4CC(CC(C4)C2)C3)[C@H]1c1ccc(CO)cc1 | 0.0467 |
| COCCCNC(=O)[C@@H]1c2ccccc2C(=O)N(Cc2ccc(OC(F)(F)F)cc2)[C@H]1c1ccc(CO)cc1 | 2.03 |

###

Catalogue of composite z-score readings, one per entry.
tested on: Wnt5a (protein binding on small-molecule microarray); assay: small molecules binding Wnt5a protein – biophysical, small-molecule microarray, 635/667 nm fluorescence, primary screen (AID 1142); details: 635 nm fluorescence, higher = more signal;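 also: fluorescence read at 667 nm with signal to noise per printed feature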
Property label: composite z-score

| Molecule | Property label | Assay value |
| --- | --- | --- |
| CCOC(=O)c1cn(C[C@H](Cc2ccccc2)NC(=O)N[C@H](CO)CCc2oc(C(C)=O)c(C(=O)OC)c2C(=O)OC)nn1 | composite z-score | 0.0532 |
| COc1ccc([Si](C)(C)[C@H]2[C@H](CC(=O)N3Cc4ccccc4C[C@H]3CO)O[C@@]3(C(=O)N(c4ccccc4)c4ccccc43)[C@@H]2C)cc1 | composite z-score | 0.479 |
| CN(C)CCCCNC(=O)[C@H]1C[C@H]2C(=O)N3CCC[C@H]3C(=O)N2[C@H]1c1cccc(OCCO)c1 | composite z-score | -0.202 |
| O=C1C=C(c2ccccc2)C(=O)C2=C1CC([C@H]1Oc3ccccc3S(=O)(=O)N3CCC[C@@H]13)=CC2 | composite z-score | -0.0842 |
| COCCOC(=O)N1C(=O)[C@@]2(c3cc(C#CCC(C(=O)OC)C(=O)OC)ccc31)[C@H](C(N)=O)[C@H]1C(=O)O[C@H](c3ccccc3)[C@H](c3ccccc3)N1[C@@H]2c1ccc(O)cc1 | composite z-score | 0.449 |
| O=C1N(CCS(=O)(=O)c2ccccc2)c2ccccc2C[C@]12N=C(c1ccc(OCCCO)cc1)O[C@@H]2c1ccccc1 | composite z-score | 0.553 |
| C=CC[C@@]12N=C(c3ccc(OCCCO)cc3)O[C@@H]1c1ccccc1N(CCC)C2=O | composite z-score | 0.318 |
| O=C(NCCN1CCOCC1)[C@@H]1c2ccccc2C(=O)N(Cc2ccc(OC(F)(F)F)cc2)[C@H]1c1ccc(CO)cc1 | composite z-score | 0.0235 |
| CCCCC(O)C1C=CC2C(=O)N(c3ccccc3)C(=O)C2N1Nc1ccc([N+](=O)[O-])cc1 (centres undefined) | composite z-score | 0.044 |
| Cc1ccc(S[C@]2(C(=O)NCc3ccccc3)CC(=O)N(Cc3ccccc3C(F)(F)F)[C@@H]2c2ccc(CO)cc2)cc1 | composite z-score | -0.666 |
| CC(C)(C)OC(=O)CC[C@@]1(C(=O)NCCN2CCOCC2)N=C(c2ccc(OCCCO)cc2)O[C@@H]1c1ccccc1CN=[N+]=[N-] | composite z-score | -0.119 |
| OCCCC1=CC(c2ccc(CN3CCCC3)cc2)N(Cc2cccc(OC(F)(F)F)c2)CC1 (centres undefined) | composite z-score | -0.131 |
| CC1CC/C=C\[C@H]2OC34C=CCN(CCN5CCOCC5)C(=O)[C@H]3N(CCCO)C(=O)[C@@H]4C2C(=O)O1 (some centres undefined) | composite z-score | -0.239 |
| CCOc1cc(C(O)C2C=CC3C(=O)N(c4ccccc4)C(=O)C3N2Nc2ccccc2F)ccc1O (centres undefined) | composite z-score | 0.482 |
| COC(=O)[C@]1(CCC(=O)OC(C)(C)C)N=C(c2ccc(OCCCO)cc2)O[C@@H]1c1ccccc1N=[N+]=[N-] | composite z-score | 0.827 |
| COC(=O)[C@H](Cc1ccc(O)cc1)N[C@@H](/C=C/C1CC1)[C@H](O)Cc1ccccc1 | composite z-score | -0.377 |
| O=C(NCC(O)CO)C1N=C(c2ccc(OCCCO)cc2)N(c2ccccc2)O1 (centres undefined) | composite z-score | 0.41 |
| CN1C(=O)C2C(C1=O)C1C=C(c3ccc(CO)cc3)C2C(C2CC2)N1C (centres undefined) | composite z-score | -0.283 |
| CN(C)C(=O)[C@]1(Cc2ccccc2)N=C(c2ccc(OCCCO)cc2)O[C@@H]1c1ccccc1CN=[N+]=[N-] | composite z-score | 0.552 |
| C=CCNC(=O)[C@H]1[C@@H]2C(=O)O[C@@H](c3ccccc3)[C@@H](c3ccccc3)N2[C@@H](c2ccccc2OCCO)[C@]12C(=O)N(C(=O)OCCOC)c1ccc(C#Cc3ccc(OC)cc3)cc12 | composite z-score | 0.571 |
| COc1ccccc1CN1C(=O)c2ccccc2[C@](Cc2ccccc2I)(C(=O)NCC(C)C)[C@@H]1c1ccc(CO)cc1 | composite z-score | 0.0108 |
| COC(=O)[C@@]1(Cc2ccc(OC)cc2)[C@H]2c3cc(C(=O)N4CCCC4)n(CCn4cc([N+](=O)[O-])nc4C)c3C[C@H]2CN1C(=O)c1ccccc1 | composite z-score | 1.94 |
| C=C(CCCC)C(=O)CC[C@@H](OC(=O)c1ccccc1-c1ccccc1C(=O)O)c1ccccc1OCCO | composite z-score | 0.0726 |
| NC(=O)N1C(=O)C2C(C1=O)C1C=C(CCCO)C2C(c2ccc(CN3CCCC3)cc2)N1Cc1sc2ccccc2c1Cl (centres undefined) | composite z-score | -0.24 |
| C=CCC(OC(C)=O)[C@@H]1[C@@H](N(Cc2ccc(-c3cccc(C(F)(F)F)c3)o2)C(=O)Cc2ccc(F)cc2)c2cc(OCCCO)ccc2N1C(=O)Cc1ccc2ccccc2c1 (some centres undefined) | composite z-score | -0.268 |
| C[C@@H]1NC(=O)C([C@@H](C)OCc2ccccc2)NC(=O)[C@@]23C(=O)N[C@@H](Cc4ccccc4)C2[C@H](C)[C@@]2(C)O[C@H]2C3/C=C/C/C=C\CNC1=O (some centres undefined) | composite z-score | 0.0076 |
| CC(C)NC(=O)[C@@H]1c2ccccc2C(=O)N(Cc2ccccc2C(F)(F)F)[C@H]1c1ccc(CO)cc1 | composite z-score | -0.0854 |
| CN(C)CCCC[C@@H]1NC(=O)[C@@H]2C[C@H](C(=O)NCCCCCCNC(=O)CS)[C@H](c3ccc(O)cc3)N2C1=O | composite z-score | 0.412 |
| COc1ccc([Si](C)(C)[C@H]2[C@H](CCO)O[C@@]3(C(=O)N(Cc4cccc(N(C=O)c5ccccc5)c4)c4ccccc43)[C@@H]2C)cc1 | composite z-score | 0.313 |

Measured values drawn from PubChem BioAssay for this set.
